Where these numbers come from: patent US8883782B2

# Test system: Aβ40 in conditioned medium of cells stably expressing Amyloid Precursor Protein (APP)
# test_name: In vitro BACE cell-based assay (Aβ40 in conditioned medium, sandwich ELISA)
# particulars: Homo sapiens, HEK293, average IC50; read-out: HEK cell assay
measurement_kind: IC50
Answer shape: numeric part, then the unit.

Hi team, please reply with IC50 for each item in this list.
1. COc1cncc(-c2ccc3c(c2)[C@@]2(COC(N)=N2)c2cc(OCC4(C)COC4)c(F)cc2O3)c1 [Example 329]
2. CC(C)(O)C#Cc1cc(F)c2c(c1)[C@]1(COC(N)=N1)c1cc(-c3cccnc3F)ccc1O2 [Example 199]
3. COc1cc2c(c(F)c1F)Oc1ccc(-c3cccnc3F)cc1[C@@]21COC(N)=N1 [Example 1005]
4. COc1nc(C2=CCOCC2)cc2c1Oc1ccc(-c3cccnc3)cc1[C@@]21COC(N)=N1 [Example 840]

Outgoing:
1: 52.5 nM; 2: 5.1 nM; 3: 1000 nM; 4: 15 nM

* * *

# tested_on: Beta Secretase enzyme (BACE) (Homo sapiens)
# Sequence (P56817 46-501, species assumed): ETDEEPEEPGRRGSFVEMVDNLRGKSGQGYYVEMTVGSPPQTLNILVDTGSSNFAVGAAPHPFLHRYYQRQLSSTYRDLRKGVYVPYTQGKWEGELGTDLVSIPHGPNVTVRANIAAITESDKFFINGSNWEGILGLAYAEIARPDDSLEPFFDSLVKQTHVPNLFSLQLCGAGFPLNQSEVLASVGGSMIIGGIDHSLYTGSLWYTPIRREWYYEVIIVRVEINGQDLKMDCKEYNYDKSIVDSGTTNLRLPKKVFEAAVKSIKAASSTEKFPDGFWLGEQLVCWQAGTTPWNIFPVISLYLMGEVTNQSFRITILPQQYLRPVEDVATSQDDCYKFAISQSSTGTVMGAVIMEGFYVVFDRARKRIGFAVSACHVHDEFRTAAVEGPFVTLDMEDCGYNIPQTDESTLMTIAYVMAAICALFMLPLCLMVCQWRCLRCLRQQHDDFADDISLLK
# test_name: In vitro enzymatic BACE FRET (fluorescence resonance energy transfer) assay
# Type: biochemical
# particulars: BACE 1 FRET assay (uM), average IC50, enzyme assay
measurement_kind: IC50

Incoming: Look up IC50: NC1=N[C@@]2(CO1)c1cc(-c3cccnc3F)ccc1Oc1cnc([C@@H]3CCCOC3)cc12
Outgoing: 0.0113 µM

* * *

# Tested on: Abeta 40 in cerebrospinal fluid (CSF) and brain
# test_name: In vivo inhibition of beta-secretase (Abeta 40 reduction in CSF and brain)
# particulars: rat, CSF, Abeta 40, 3 mpk, after 4 hrs; read-out: CSF A-beta reduction % at 3 mpk
# Procedure: In Vivo Inhibition of Beta-Secretase Several animal models, including mouse, rat, dog, and monkey, may be used to screen for inhibition of beta-secretase activity in vivo following administration of a test compound sample. Animals used in this invention can be wild type, transgenic, or gene knockout animals. […] CSF or brain supernatants are then analyzed for the presence of A-beta peptide by specific sandwich ELISA assays based on ECL (Electrochemiluminescence) technology. […]
Each entry gets f if its inhibition in vivo at 3 mg/kg stays under 60%, and t if its inhibition in vivo at 3 mg/kg is 60% or above.

Incoming: Does the molecule CC(C)(F)COc1cc(F)c2c(c1)[C@]1(COC(N)=N1)c1cc(-c3cncnc3)c(F)cc1O2 [Example 668] have recorded inhibition in vivo at 3 mg/kg that is 60% or more?
Outgoing: f

Incoming: Does the molecule CC#Cc1cncc(-c2ccc3c(c2)[C@@]2(COC(N)=N2)c2cc(-c4cccnc4)nc(F)c2O3)c1 [Example 759] have recorded inhibition in vivo at 3 mg/kg that is 60% or more?
Outgoing: f

Incoming: Does the molecule CC#Cc1cncc(-c2ccc3c(c2)[C@@]2(COC(N)=N2)c2cc(-c4cnn(C)c4)cc(F)c2O3)c1 [Example 947] have recorded inhibition in vivo at 3 mg/kg that is 60% or more?
Outgoing: f

Incoming: Does the molecule CC#Cc1cncc(-c2ccc3c(c2)[C@@]2(COC(N)=N2)c2cc(C#CC(C)(C)O)cc(F)c2O3)c1 [Example 951] have recorded inhibition in vivo at 3 mg/kg that is 60% or more?
Outgoing: f

Incoming: Does the molecule NC1=N[C@@]2(CO1)c1cc(-c3c(F)ccnc3F)ccc1Oc1cnc(C3=CCCOC3)cc12 [Example 676] have recorded inhibition in vivo at 3 mg/kg that is 60% or more?
Outgoing: t

Incoming: Does the molecule NC1=N[C@@]2(CO1)c1cc(-c3cncc(F)c3)ccc1Oc1c2cc(N2CCC(F)(F)C2)nc1F [Example 922] have recorded inhibition in vivo at 3 mg/kg that is 60% or more?
Outgoing: t

Incoming: Does the molecule NC1=N[C@@]2(CO1)c1cc(-c3cccnc3F)ccc1Oc1c2cc(C2=CCCOC2)nc1F [Example 688] have recorded inhibition in vivo at 3 mg/kg that is 60% or more?
Outgoing: t
